- procedure details: Metabolic stability in mouse liver microsomes
- Type: in vitro ADME
- assay context: mouse liver microsomes
value type: Clearance Class.

molecule: OCC(c1ccc(Br)cc1)n1cc(Cn2cnc3c(Cl)nccc32)nn1 (stereo not drawn) [Compound 49a]
recorded value: LOW (<30% low)
//
molecule: OCC(c1ccc(Br)cc1)n1cc(Cn2cnc3ccccc32)nn1 (stereo not drawn) [Compound 34a]
recorded value: LOW (<30% low)
//
molecule: OC(Cn1cc(Cn2cnc3c(Cl)nccc32)nn1)c1ccc(Br)cc1 (stereo not drawn) [Compound 49b]
recorded value: LOW (<30% low)
//
molecule: O[C@@H](Cn1cc(Cn2cnc3c(Cl)ncnc32)nn1)c1ccc(C(F)(F)F)cc1 [Compound (R)-40b]
recorded value: LOW (<30% low)
//
molecule: O[C@H](Cn1cc(Cn2cnc3c(Cl)ncnc32)nn1)c1ccc(C(F)(F)F)cc1 [Compound (S)-40b]
recorded value: LOW (<30% low)
